- Tested on: 997537-175-T-J1-PDC complex spheroid viability
- Method notes: Anticancer human tumor 997537-175-T-J1-PDC patient-derived colon adenocarcinoma cell line growth inhibition [GQUAD]
- Measurement context: second compound 0.316 µM; first compound 0.000999 µM; stronger effect = lower value
- Excerpt: DNA G-quadruplex Stabilizer Agents in Combinations in Complex Spheroids A high-throughput screen of multi-cell type tumor spheroids was designed to identify active combinations of DNA G-quadruplex stabilizer agents and targeted small molecules. […] Compounds. […] If the clinical Cmax for an agent had not been determined, the highest concentration tested was 10 microM. […]
Listing of entries alongside the reported viability, T/C.
Kindly provide the numeric value in % only, without the unit symbol.

Guide cases for viability, T/C, answers given:
{"Compound": "CC[C@@]1(O)C(=O)OCc2c1cc1n(c2=O)Cc2cc3c(CN(C)C)c(O)ccc3nc2-1 + Cc1cnc(CNC(=O)c2c(=O)c3ccc(N4CCCN(C)CC4)nc3n3c2sc2ccccc23)cn1", "Assay readout": "viability, T/C", "Readout units": "%", "Value": 92.8}
{"Compound": "Cc1[nH]c2ccccc2c1CCNCc1ccc(/C=C/C(=O)NO)cc1 + Cc1cnc(CNC(=O)c2c(=O)c3ccc(N4CCCN(C)CC4)nc3n3c2sc2ccccc23)cn1", "Assay readout": "viability, T/C", "Readout units": "%", "Value": 105}
{"Compound": "CCc1c2c(nc3ccc(O)cc13)-c1cc3c(c(=O)n1C2)COC(=O)[C@]3(O)CC + Cc1cnc(CNC(=O)c2c(=O)c3ccc(N4CCCN(C)CC4)nc3n3c2sc2ccccc23)cn1", "Assay readout": "viability, T/C", "Readout units": "%", "Value": 101}
{"Compound": "Cn1ncnc1[C@H]1c2n[nH]c(=O)c3cc(F)cc(c23)N[C@@H]1c1ccc(F)cc1 + CN(C)c1ccc(Nc2c3ccc(NC(=O)CCN4CCCC4)cc3nc3cc(NC(=O)CCN4CCCC4)ccc23)cc1", "Assay readout": "viability, T/C", "Readout units": "%", "Value": 94.8}

Given CC[C@@]1(O)C(=O)OCc2c1cc1n(c2=O)Cc2cc3c(CN(C)C)c(O)ccc3nc2-1 + Cc1[nH]c2ccc(F)cc2c1-c1nc2c3cccnc3c3ncccc3c2[nH]1 , state its recorded viability, T/C.
85.9

// same read-out, input: CCc1c2c(nc3ccc(O)cc13)-c1cc3c(c(=O)n1C2)COC(=O)[C@]3(O)CC + Cc1[nH]c2ccc(F)cc2c1-c1nc2c3cccnc3c3ncccc3c2[nH]1
90.5

// same read-out, input: CC[C@@]1(O)C(=O)OCc2c1cc1n(c2=O)Cc2cc3c(CN(C)C)c(O)ccc3nc2-1 + CN(C)c1ccc(Nc2c3ccc(NC(=O)CCN4CCCC4)cc3nc3cc(NC(=O)CCN4CCCC4)ccc23)cc1
82.3

----------
- Tested on: 997537-175-T-J1-PDC complex spheroid viability
- Method notes: Anticancer human tumor 997537-175-T-J1-PDC cell line growth inhibition [GQUAD];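 also: spheroids exposed to the agents for 7 days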;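 as to viability, T/C: 100% = DMSO vehicle control viability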
- Measurement context: second compound 1 µM; first compound 0.316 µM; stronger effect = lower value
Assay readout: viability, T/C (%)
Kindly provide the numeric value in % only, without the unit symbol.

{"Molecule": "Cn1ncnc1[C@H]1c2n[nH]c(=O)c3cc(F)cc(c23)N[C@@H]1c1ccc(F)cc1 + Cc1cnc(CNC(=O)c2c(=O)c3ccc(N4CCCN(C)CC4)nc3n3c2sc2ccccc23)cn1", "Target under test": "997537-175-T-J1-PDC complex spheroid viability", "Value": 108}
{"Molecule": "O=c1[nH]cc(F)c(=O)[nH]1 + CN(C)c1ccc(Nc2c3ccc(NC(=O)CCN4CCCC4)cc3nc3cc(NC(=O)CCN4CCCC4)ccc23)cc1", "Target under test": "997537-175-T-J1-PDC complex spheroid viability", "Value": 87.9}
{"Molecule": "CC1COCCN1c1cc(-c2ccnn2C)c2ccnc(-c3ccn[nH]3)c2n1 (configuration not stated) + Cc1cnc(CNC(=O)c2c(=O)c3ccc(N4CCCN(C)CC4)nc3n3c2sc2ccccc23)cn1", "Target under test": "997537-175-T-J1-PDC complex spheroid viability", "Value": 67.5}

Given C=CC(=O)N1CCN(c2nc(=O)n(-c3c(C)ccnc3C(C)C)c3nc(-c4c(O)cccc4F)c(F)cc23)C(C)C1 (configuration not stated) + Cc1cnc(CNC(=O)c2c(=O)c3ccc(N4CCCN(C)CC4)nc3n3c2sc2ccccc23)cn1 , state its recorded viability, T/C.
99

// same read-out, input: COc1cc(C2c3cc4c(cc3C(OC3OC5COC(C)OC5C(O)C3O)C3COC(=O)C23)OCO4)cc(OC)c1O (configuration not stated) + CN(C)c1ccc(Nc2c3ccc(NC(=O)CCN4CCCC4)cc3nc3cc(NC(=O)CCN4CCCC4)ccc23)cc1
90.2

// same read-out, input: Cc1[nH]c2ccccc2c1CCNCc1ccc(/C=C/C(=O)NO)cc1 + Cc1[nH]c2ccc(F)cc2c1-c1nc2c3cccnc3c3ncccc3c2[nH]1
84.8

// same read-out, input: Nc1ccn(C2OC(CO)C(O)C2(F)F)c(=O)n1 (configuration not stated) + Cc1[nH]c2ccc(F)cc2c1-c1nc2c3cccnc3c3ncccc3c2[nH]1
94.7

// same read-out, input: Nc1ccn(C2OC(CO)C(O)C2(F)F)c(=O)n1 (configuration not stated) + Cc1cnc(CNC(=O)c2c(=O)c3ccc(N4CCCN(C)CC4)nc3n3c2sc2ccccc23)cn1
102

----------
Listing of entries alongside the reported viability, T/C.
- Tested on: 997537-175-T-J1-PDC complex spheroid viability
- Method notes: Anticancer human tumor 997537-175-T-J1-PDC cell line growth inhibition [GQUAD];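 also: spheroids exposed to the agents for 7 days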;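 as to viability, T/C: 100% = DMSO vehicle control viability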
- Measurement context: second compound 0.316 µM; first compound 3.16 µM; stronger effect = lower value
Kindly provide the numeric value in % only, without the unit symbol.

{"Compound": "COc1ccc([C@@H](O)c2cc(-c3ncnc4cc(N5CCOCC5)ccc34)c(F)cc2Cl)nn1 + CN(C)c1ccc(Nc2c3ccc(NC(=O)CCN4CCCC4)cc3nc3cc(NC(=O)CCN4CCCC4)ccc23)cc1", "viability, T/C / %": 81.9}

Given Cc1cccc(N(C)C(=O)C2C(O)CCN2c2nc(C)cc(C(F)(F)F)c2C#N)c1 (stereo not given) + CN(C)c1ccc(Nc2c3ccc(NC(=O)CCN4CCCC4)cc3nc3cc(NC(=O)CCN4CCCC4)ccc23)cc1 , state its recorded viability, T/C.
89.2

// same read-out, input: O=C(NO)c1cnc(N2CCN(S(=O)(=O)c3ccc4ccccc4c3)CC2)nc1 + Cc1[nH]c2ccc(F)cc2c1-c1nc2c3cccnc3c3ncccc3c2[nH]1
42.2

// same read-out, input: C=CC(=O)N1CCN(c2nc(=O)n(-c3c(C)ccnc3C(C)C)c3nc(-c4c(O)cccc4F)c(F)cc23)C(C)C1 (stereo not given) + CN(C)c1ccc(Nc2c3ccc(NC(=O)CCN4CCCC4)cc3nc3cc(NC(=O)CCN4CCCC4)ccc23)cc1
92.4

// same read-out, input: COc1cc(C2c3cc4c(cc3C(OC3OC5COC(C)OC5C(O)C3O)C3COC(=O)C23)OCO4)cc(OC)c1O (stereo not given) + Cc1cnc(CNC(=O)c2c(=O)c3ccc(N4CCCN(C)CC4)nc3n3c2sc2ccccc23)cn1
60

// same read-out, input: CC(=O)O[C@H]1C(=O)[C@@]2(C)[C@H]([C@H](OC(=O)c3ccccc3)[C@]3(O)C[C@H](OC(=O)[C@H](O)[C@@H](NC(=O)c4ccccc4)c4ccccc4)C(C)=C1C3(C)C)[C@]1(OC(C)=O)CO[C@@H]1C[C@@H]2O + Cc1cnc(CNC(=O)c2c(=O)c3ccc(N4CCCN(C)CC4)nc3n3c2sc2ccccc23)cn1
35

// same read-out, input: C#Cc1c(F)ccc2cc(O)cc(-c3ncc4c(N5CC6CCC(C5)N6)nc(OCC56CCCN5CC(F)C6)nc4c3F)c12 (stereo not given) + CN(C)c1ccc(Nc2c3ccc(NC(=O)CCN4CCCC4)cc3nc3cc(NC(=O)CCN4CCCC4)ccc23)cc1
103

// same read-out, input: CC1COCCN1c1cc(-c2ccnn2C)c2ccnc(-c3ccn[nH]3)c2n1 (stereo not given) + CN(C)c1ccc(Nc2c3ccc(NC(=O)CCN4CCCC4)cc3nc3cc(NC(=O)CCN4CCCC4)ccc23)cc1
54.9

// same read-out, input: C=CCn1c(=O)c2cnc(Nc3ccc(N4CCN(C)CC4)cc3)nc2n1-c1cccc(C(C)(C)O)n1 + Cc1cnc(CNC(=O)c2c(=O)c3ccc(N4CCCN(C)CC4)nc3n3c2sc2ccccc23)cn1
44.8

// same read-out, input: CC1COCCN1c1cc(C2(O)CC3CCC(C2)O3)c2cnn(-c3ccn[nH]3)c2n1 (stereo not given) + Cc1[nH]c2ccc(F)cc2c1-c1nc2c3cccnc3c3ncccc3c2[nH]1
54

----------
- System: 997537-175-T-J1-PDC complex spheroid viability
- Method notes: Anticancer human tumor 997537-175-T-J1-PDC cell line growth inhibition [GQUAD];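 also: spheroids exposed to the agents for 7 days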
- Measurement context: curve of first compound; second compound 0.0316 µM
Friendly reminder: IC50 below 2 µM is Condition met, at or above is Condition not met.

{"Compound": "CC(=O)O[C@H]1C(=O)[C@@]2(C)[C@H]([C@H](OC(=O)c3ccccc3)[C@]3(O)C[C@H](OC(=O)[C@H](O)[C@@H](NC(=O)c4ccccc4)c4ccccc4)C(C)=C1C3(C)C)[C@]1(OC(C)=O)CO[C@@H]1C[C@@H]2O + Cc1[nH]c2ccc(F)cc2c1-c1nc2c3cccnc3c3ncccc3c2[nH]1", "Class label": "Condition not met"}

Problem: For the compound CC(=O)O[C@H]1C(=O)[C@@]2(C)[C@H]([C@H](OC(=O)c3ccccc3)[C@]3(O)C[C@H](OC(=O)[C@H](O)[C@@H](NC(=O)c4ccccc4)c4ccccc4)C(C)=C1C3(C)C)[C@]1(OC(C)=O)CO[C@@H]1C[C@@H]2O + Cc1cnc(CNC(=O)c2c(=O)c3ccc(N4CCCN(C)CC4)nc3n3c2sc2ccccc23)cn1 , is IC50 under 2 µM?
Condition met

// same read-out, input: COc1cc(C2c3cc4c(cc3C(OC3OC5COC(C)OC5C(O)C3O)C3COC(=O)C23)OCO4)cc(OC)c1O (stereo not given) + Cc1[nH]c2ccc(F)cc2c1-c1nc2c3cccnc3c3ncccc3c2[nH]1
Condition not met

// same read-out, input: Cc1cccc(N(C)C(=O)C2C(O)CCN2c2nc(C)cc(C(F)(F)F)c2C#N)c1 (stereo not given) + Cc1cnc(CNC(=O)c2c(=O)c3ccc(N4CCCN(C)CC4)nc3n3c2sc2ccccc23)cn1
Condition not met
